molecular target: aryl hydrocarbon receptor (AhR) (Mus musculus); construct: purified mouse AhR:ARNT complex; with ARNT; assay: fluorescence quenching assay (intrinsic ligand fluorescence) with purified AhR:ARNT
Sequence (P30561 10-848): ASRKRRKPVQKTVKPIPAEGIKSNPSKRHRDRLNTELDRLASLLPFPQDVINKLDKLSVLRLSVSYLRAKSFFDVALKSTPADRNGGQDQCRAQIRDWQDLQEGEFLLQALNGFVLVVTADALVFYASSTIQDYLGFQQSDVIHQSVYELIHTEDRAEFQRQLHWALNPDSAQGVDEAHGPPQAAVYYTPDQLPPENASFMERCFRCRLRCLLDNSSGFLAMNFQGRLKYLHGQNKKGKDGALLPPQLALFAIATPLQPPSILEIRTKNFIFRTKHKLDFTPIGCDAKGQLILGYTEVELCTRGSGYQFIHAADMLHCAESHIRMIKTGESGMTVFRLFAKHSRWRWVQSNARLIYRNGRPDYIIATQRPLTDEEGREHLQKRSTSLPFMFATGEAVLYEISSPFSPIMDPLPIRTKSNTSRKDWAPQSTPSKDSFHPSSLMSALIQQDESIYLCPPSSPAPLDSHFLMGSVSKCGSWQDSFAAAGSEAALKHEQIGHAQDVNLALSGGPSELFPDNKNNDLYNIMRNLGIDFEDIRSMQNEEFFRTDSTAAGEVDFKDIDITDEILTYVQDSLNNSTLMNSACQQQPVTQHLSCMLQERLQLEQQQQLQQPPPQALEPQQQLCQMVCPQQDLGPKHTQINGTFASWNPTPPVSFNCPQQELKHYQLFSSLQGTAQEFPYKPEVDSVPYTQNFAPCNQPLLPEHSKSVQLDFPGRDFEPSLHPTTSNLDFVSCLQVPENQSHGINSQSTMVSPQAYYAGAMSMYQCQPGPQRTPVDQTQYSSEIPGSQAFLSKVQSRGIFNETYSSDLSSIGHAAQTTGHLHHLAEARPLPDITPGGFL
Sequence (P53762 2-791 partner): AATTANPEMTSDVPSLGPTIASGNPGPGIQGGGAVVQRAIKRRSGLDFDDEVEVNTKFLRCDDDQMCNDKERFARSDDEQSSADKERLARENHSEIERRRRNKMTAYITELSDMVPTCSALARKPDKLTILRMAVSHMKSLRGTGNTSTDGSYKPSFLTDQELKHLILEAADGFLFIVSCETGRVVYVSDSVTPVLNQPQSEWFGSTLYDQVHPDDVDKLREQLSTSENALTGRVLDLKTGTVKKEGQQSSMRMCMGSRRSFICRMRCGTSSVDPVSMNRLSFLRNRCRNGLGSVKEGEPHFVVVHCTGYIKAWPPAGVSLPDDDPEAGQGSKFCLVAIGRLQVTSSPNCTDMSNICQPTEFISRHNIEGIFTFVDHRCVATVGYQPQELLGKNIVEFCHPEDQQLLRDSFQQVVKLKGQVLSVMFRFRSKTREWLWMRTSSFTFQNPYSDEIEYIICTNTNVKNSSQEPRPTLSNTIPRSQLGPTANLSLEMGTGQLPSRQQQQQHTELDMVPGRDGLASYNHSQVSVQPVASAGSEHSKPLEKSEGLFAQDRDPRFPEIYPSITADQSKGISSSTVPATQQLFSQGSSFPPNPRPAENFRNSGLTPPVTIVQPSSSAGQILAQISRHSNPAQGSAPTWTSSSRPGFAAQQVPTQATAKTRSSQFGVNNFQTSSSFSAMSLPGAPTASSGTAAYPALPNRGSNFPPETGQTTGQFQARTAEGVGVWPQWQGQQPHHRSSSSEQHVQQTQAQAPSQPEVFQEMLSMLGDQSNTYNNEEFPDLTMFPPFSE
Property measured: Kd
Could you give the number and then its unit, please?

Enquiry: Bench note: what Kd did CCS(=O)(=O)c1ccc2oc(-c3ccc4ccccc4c3)nc2c1 show?
Return: 50.1 nM
